# TARGET_OR_SYSTEM: DGKζ (Homo sapiens (Human), UniProt Q13574)
# Sequence (Q13574 other isoform, or with tags, fused parts or gaps): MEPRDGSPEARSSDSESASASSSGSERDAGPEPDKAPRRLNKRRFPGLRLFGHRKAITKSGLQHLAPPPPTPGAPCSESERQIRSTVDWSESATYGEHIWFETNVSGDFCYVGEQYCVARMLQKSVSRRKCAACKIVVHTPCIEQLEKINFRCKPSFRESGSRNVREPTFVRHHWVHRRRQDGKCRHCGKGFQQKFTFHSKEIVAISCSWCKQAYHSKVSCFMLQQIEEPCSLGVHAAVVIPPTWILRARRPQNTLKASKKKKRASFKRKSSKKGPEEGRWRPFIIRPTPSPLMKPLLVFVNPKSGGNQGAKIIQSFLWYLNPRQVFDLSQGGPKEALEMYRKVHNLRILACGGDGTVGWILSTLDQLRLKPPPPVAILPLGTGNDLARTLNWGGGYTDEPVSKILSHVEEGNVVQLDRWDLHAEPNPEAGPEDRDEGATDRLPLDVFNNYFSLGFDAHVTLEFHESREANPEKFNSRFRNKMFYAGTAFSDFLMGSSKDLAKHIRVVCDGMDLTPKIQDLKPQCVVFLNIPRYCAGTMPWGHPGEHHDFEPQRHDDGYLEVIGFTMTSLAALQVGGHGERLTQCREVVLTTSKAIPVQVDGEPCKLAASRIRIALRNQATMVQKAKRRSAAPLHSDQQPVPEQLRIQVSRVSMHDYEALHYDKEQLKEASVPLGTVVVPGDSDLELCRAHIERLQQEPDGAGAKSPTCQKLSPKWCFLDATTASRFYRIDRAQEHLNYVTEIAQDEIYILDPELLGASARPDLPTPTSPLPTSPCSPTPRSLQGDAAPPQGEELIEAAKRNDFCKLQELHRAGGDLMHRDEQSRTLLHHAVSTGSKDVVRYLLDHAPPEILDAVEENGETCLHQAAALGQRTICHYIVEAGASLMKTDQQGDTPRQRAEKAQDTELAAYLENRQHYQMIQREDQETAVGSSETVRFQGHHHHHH
pIC50: −log10 of the molar value.
// n strictly below 6 in pIC50; y otherwise

# MOLECULE, CATEGORY
rows = [
    ("CC[C@H]1CN(C(C(=O)NCCOC)c2ccc(C(F)(F)F)cc2)[C@H](CC)CN1c1nc(=O)n(C)c2ccc(C#N)nc12 (single isomer, unassigned)", "y"),
    ("C[C@@H]1CN(c2cc(=O)n(C)c3ccc(C#N)nc23)[C@@H](C)CN1C(C(=O)Nc1ccon1)c1ccc(F)cc1 (stereo partly drawn) [Example 29]", "n"),
    ("C[C@@H]1CN(c2cc(=O)n(C)c3ccc(C#N)nc23)[C@@H](C)CN1C(C(=O)Nc1ccon1)c1ccc(F)cc1 (stereo partly drawn) [Example 30]", "y"),
    ("C[C@@H]1CN(c2cc(=O)n(C)c3ccc(C#N)nc23)[C@@H](C)CN1C(C(=O)NCC(F)F)c1ccc(F)cc1 (stereo partly drawn)", "n"),
    ("C[C@@H]1CN(c2cc(=O)n(C)c3ccc(C#N)nc23)[C@@H](C)CN1C(C(=O)NCCOCCOCCNC(=O)c1ccc2c(c1)C(=O)OC21c2ccc(O)cc2Oc2cc(O)ccc21)c1ccc(F)cc1 (stereo partly drawn)", "n"),
]

* * *

# TARGET_OR_SYSTEM: DGKα (Homo sapiens (Human))
# METHOD: Assay 2: In Vitro DGK Inhibition Assays, Method B (DGKα ADPGLO)
# Type: biochemical
# CONDITION_CONTEXT: 150 μM ATP
# Sequence (P23743 other isoform, or with tags, fused parts or gaps): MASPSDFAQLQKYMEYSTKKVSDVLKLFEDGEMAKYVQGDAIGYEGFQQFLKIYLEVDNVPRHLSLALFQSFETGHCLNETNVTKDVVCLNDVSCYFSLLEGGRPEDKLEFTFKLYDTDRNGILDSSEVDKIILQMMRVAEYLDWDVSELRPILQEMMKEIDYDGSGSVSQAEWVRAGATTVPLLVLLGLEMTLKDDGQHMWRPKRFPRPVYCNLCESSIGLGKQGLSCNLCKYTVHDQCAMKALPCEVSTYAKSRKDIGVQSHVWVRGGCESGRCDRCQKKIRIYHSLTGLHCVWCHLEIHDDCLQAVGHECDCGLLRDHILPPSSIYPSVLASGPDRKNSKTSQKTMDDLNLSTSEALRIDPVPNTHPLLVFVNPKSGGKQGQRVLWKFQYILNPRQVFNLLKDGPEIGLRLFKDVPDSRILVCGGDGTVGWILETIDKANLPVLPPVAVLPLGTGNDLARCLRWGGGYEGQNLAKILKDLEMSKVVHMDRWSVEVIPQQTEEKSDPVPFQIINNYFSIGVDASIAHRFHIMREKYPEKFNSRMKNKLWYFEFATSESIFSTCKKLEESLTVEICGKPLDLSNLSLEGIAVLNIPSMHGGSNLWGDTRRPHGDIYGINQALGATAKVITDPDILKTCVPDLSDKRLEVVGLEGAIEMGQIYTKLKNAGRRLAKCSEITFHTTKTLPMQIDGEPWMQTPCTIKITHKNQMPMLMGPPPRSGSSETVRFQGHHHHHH
pIC50: −log10 of the molar value.
// n strictly below 6 in pIC50; y otherwise

# COMPOUND, CATEGORY
records = [
    ("CC[C@H]1CN(C(C(=O)N2CCOCC2)c2ccc(C(F)(F)F)cc2)[C@H](CC)CN1c1nc(=O)n(C)c2ccc(C#N)nc12 (single isomer, unassigned) [Example 53]", "n"),
    ("CC[C@H]1CN(C(C(=O)N2CCOCC2)c2ccc(C(F)(F)F)cc2)[C@H](CC)CN1c1nc(=O)n(C)c2ccc(C#N)nc12 (single isomer, unassigned) [Example 54]", "y"),
    ("C#CCCC1(CCCOC(=O)C(c2ccc(OC)cc2)N2C[C@H](C)N(c3nc(=O)n(C)c4ccc(C#N)nc34)C[C@H]2C)N=N1 (single isomer, unassigned) [Example 60]", "y"),
    ("CC[C@H]1CN(C(C(=O)NCCOC)c2ccc(C(F)(F)F)cc2)[C@H](CC)CN1c1nc(=O)n(C)c2ccc(C#N)nc12 (single isomer, unassigned) [Example 55]", "y"),
    ("CC[C@H]1CN(C(C(=O)NCCOC)c2ccc(C(F)(F)F)cc2)[C@H](CC)CN1c1nc(=O)n(C)c2ccc(C#N)nc12 (single isomer, unassigned) [Example 56]", "n"),
]

* * *

Entries annotated with measured IC50
# TARGET_OR_SYSTEM: DGKζ (Homo sapiens (Human))

# MOLECULE, IC50 (µM)
measured = [
    ("C[C@@H]1CN(c2cc(=O)n(C)c3ccc(C#N)nc23)[C@@H](C)CN1C(C(=O)N1CCCCC1)c1ccc(F)cc1 (stereo partly drawn) [Example 12]", 6.68),
    ("C[C@@H]1CN(c2cc(=O)n(C)c3ccc(C#N)nc23)[C@@H](C)CN1C(C(=O)N1CCN(C)CC1)c1ccc(F)cc1 (stereo partly drawn)", 83.3),
    ("C[C@@H]1CN(c2cc(=O)n(C)c3ccc(C#N)nc23)[C@@H](C)CN1C(C(=O)Nc1ccn(C)n1)c1ccc(F)cc1 (stereo partly drawn)", 9.84),
]

* * *

Entries annotated with measured pEC50
# Test system: Human whole blood IFN-γ
# METHOD: Assay 10: Human Whole Blood IFN-γ Assay
# Type: cell-based
# CONDITION_CONTEXT: anti-CD3 and anti-CD28 stimulation, 24 hours, 100% = 3 μM reference compound, read-out: INFg Whole Blood Normalized Agonist EC50
# Procedure: Assay 10: Human Whole Blood IFN-γ Assay Human venous whole blood (22.5 μL per well), obtained from healthy donors, was pre-treated with compounds for one hour at 37° C. in a humidified 95% air/5% CO2 incubator. The blood was stimulated with 2.5 μL anti-human CD3 and anti-CD28 mAb at a final concentration of 1 μg/mL each for 24 hours at 37° C. IFN-7 in the supernatants was measured using AlphLISA kit (Cat #AL217).
pEC50: −log10 of the molar value.
VALUE_KIND: pEC50

# MOLECULE, TARGET_OR_SYSTEM, QUANTITATIVE_READOUT
rows = [
    ("CC(C(=O)NC1CCCC1)N1C[C@H](C)N(c2cc(=O)n(C)c3ccc(C#N)nc23)C[C@H]1C (single isomer, unassigned)", "Human whole blood IFN-γ", 4.70),
    ("C[C@@H]1CN(c2cc(=O)n(C)c3ccc(C#N)nc23)[C@@H](C)CN1C(C(=O)N(C)C)c1ccc(F)cc1 (stereo partly drawn)", "Human whole blood IFN-γ", 4.70),
    ("C[C@@H]1CN(c2cc(=O)n(C)c3ccc(C#N)nc23)[C@@H](C)CN1C(C(=O)N1CCCC1)c1ccc(F)cc1 (stereo partly drawn) [Example 21]", "Human whole blood IFN-γ", 5.59),
    ("C[C@@H]1CN(c2cc(=O)n(C)c3ccc(C#N)nc23)[C@@H](C)CN1C(c1ccc(F)cc1)P(C)(C)=O (single isomer, unassigned)", "Human whole blood IFN-γ", 4.70),
    ("C[C@@H]1CN(c2cc(=O)n(C)c3ccc(C#N)nc23)[C@@H](C)CN1C(C(=O)N1CCCC1)c1ccc(F)cc1 (stereo partly drawn) [Example 22]", "Human whole blood IFN-γ", 5.04),
    ("CNC(=O)C(c1ccc(F)cc1)N1C[C@H](C)N(c2cc(=O)n(C)c3ccc(C#N)nc23)C[C@H]1C (stereo partly drawn) [Example 26]", "Human whole blood IFN-γ", 4.70),
    ("CNC(=O)C(c1ccc(F)cc1)N1C[C@H](C)N(c2cc(=O)n(C)c3ccc(C#N)nc23)C[C@H]1C (stereo partly drawn) [Example 25]", "Human whole blood IFN-γ", 5.29),
    ("CC(C(=O)Nc1cnn(C)c1)N1C[C@H](C)N(c2cc(=O)n(C)c3ccc(C#N)nc23)C[C@H]1C (stereo partly drawn)", "Human whole blood IFN-γ", 4.70),
    ("C[C@@H]1CN(c2cc(=O)n(C)c3ccc(C#N)nc23)[C@@H](C)CN1C(C(=O)N1CCOCC1)c1ccc(F)cc1 (stereo partly drawn) [Example 17]", "Human whole blood IFN-γ", 5.83),
    ("C[C@@H]1CN(c2cc(=O)n(C)c3ccc(C#N)nc23)[C@@H](C)CN1C(C(=O)N1CCOCC1)c1ccc(F)cc1 (stereo partly drawn) [Example 18]", "Human whole blood IFN-γ", 4.70),
    ("C[C@@H]1CN(c2cc(=O)n(C)c3ccc(C#N)nc23)[C@@H](C)CN1C(C(N)=O)c1ccc(F)cc1 (stereo partly drawn)", "Human whole blood IFN-γ", 4.70),
    ("CC(C(=O)NC1CC1)N1C[C@H](C)N(c2cc(=O)n(C)c3ccc(C#N)nc23)C[C@H]1C (stereo partly drawn)", "Human whole blood IFN-γ", 4.70),
    ("COC(=O)CC(c1ccc(F)cc1)N1C[C@H](C)N(c2cc(=O)n(C)c3ccc(C#N)nc23)C[C@H]1C (single isomer, unassigned) [Example 32]", "Human whole blood IFN-γ", 5.74),
    ("COC(=O)CC(c1ccc(F)cc1)N1C[C@H](C)N(c2cc(=O)n(C)c3ccc(C#N)nc23)C[C@H]1C (single isomer, unassigned) [Example 31]", "Human whole blood IFN-γ", 6.82),
    ("CC(C)OC(=O)C(c1ccc(F)cc1)N1C[C@H](C)N(c2cc(=O)n(C)c3ccc(C#N)nc23)C[C@H]1C (single isomer, unassigned) [Example 2]", "Human whole blood IFN-γ", 7.22),
    ("CC(C)N(C)C(=O)CC(c1ccc(F)cc1)N1C[C@H](C)N(c2cc(=O)n(C)c3ccc(C#N)nc23)C[C@H]1C (stereo partly drawn)", "Human whole blood IFN-γ", 5.86),
    ("C[C@@H]1CN(c2cc(=O)n(C)c3ccc(C#N)nc23)[C@@H](C)CN1C(C(=O)Nc1ccn(C)n1)c1ccc(F)cc1 (stereo partly drawn)", "Human whole blood IFN-γ", 4.84),
    ("CC(C)OC(=O)C(c1ccc(F)cc1)N1C[C@H](C)N(c2cc(=O)n(C)c3ccc(C#N)nc23)C[C@H]1C (single isomer, unassigned) [Example 1]", "Human whole blood IFN-γ", 6.21),
]

* * *

# TARGET_OR_SYSTEM: DGKα (Homo sapiens (Human), UniProt P23743)
# METHOD: Assay 1: In Vitro DGK Inhibition Assays, Method A (DGKα LIPGLO, extruded liposome)
# Type: biochemical
# CONDITION_CONTEXT: extruded liposome substrate, 150 μM ATP
# Sequence (P23743 whole entry): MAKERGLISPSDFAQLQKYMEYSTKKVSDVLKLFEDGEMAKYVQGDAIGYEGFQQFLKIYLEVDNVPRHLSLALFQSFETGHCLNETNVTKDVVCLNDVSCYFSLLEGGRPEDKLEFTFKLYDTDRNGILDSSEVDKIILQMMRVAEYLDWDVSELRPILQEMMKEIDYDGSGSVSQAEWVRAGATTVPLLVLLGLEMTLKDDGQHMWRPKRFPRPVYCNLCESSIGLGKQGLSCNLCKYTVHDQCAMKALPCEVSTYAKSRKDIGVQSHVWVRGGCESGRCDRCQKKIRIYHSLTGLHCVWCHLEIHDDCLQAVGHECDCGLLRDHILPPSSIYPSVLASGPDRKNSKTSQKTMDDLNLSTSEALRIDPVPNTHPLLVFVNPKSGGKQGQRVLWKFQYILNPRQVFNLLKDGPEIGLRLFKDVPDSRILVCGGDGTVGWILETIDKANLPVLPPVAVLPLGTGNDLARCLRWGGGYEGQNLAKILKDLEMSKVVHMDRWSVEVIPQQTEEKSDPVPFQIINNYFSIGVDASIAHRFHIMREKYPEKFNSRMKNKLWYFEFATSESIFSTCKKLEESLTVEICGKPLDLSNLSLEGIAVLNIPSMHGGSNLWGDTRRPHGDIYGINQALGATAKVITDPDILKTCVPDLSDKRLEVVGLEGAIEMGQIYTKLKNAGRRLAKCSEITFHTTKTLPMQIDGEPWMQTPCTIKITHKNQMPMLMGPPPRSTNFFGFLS
pIC50: −log10 of the molar value.
// Criterion not met strictly below 5 in pIC50; Criterion met otherwise

# MOLECULE, CATEGORY
measured = [
    ("C[C@@H]1CN(c2cc(=O)n(C)c3ccc(C#N)nc23)[C@@H](C)CN1C(C(=O)N1CCN(C)CC1)c1ccc(F)cc1 (stereo partly drawn) [Example 20]", "Criterion not met"),
    ("C[C@@H]1CN(c2cc(=O)n(C)c3ccc(C#N)nc23)[C@@H](C)CN1C(C(=O)N1CCN(C)CC1)c1ccc(F)cc1 (stereo partly drawn) [Example 19]", "Criterion not met"),
    ("C[C@@H]1CN(c2cc(=O)n(C)c3ccc(C#N)nc23)[C@@H](C)CN1C(C(=O)Nc1ccn(C)n1)c1ccc(F)cc1 (stereo partly drawn) [Example 15]", "Criterion not met"),
    ("C[C@@H]1CN(c2cc(=O)n(C)c3ccc(C#N)nc23)[C@@H](C)CN1C(C(=O)N1CCOCC1)c1ccc(F)cc1 (stereo partly drawn) [Example 18]", "Criterion not met"),
    ("C[C@@H]1CN(c2cc(=O)n(C)c3ccc(C#N)nc23)[C@@H](C)CN1C(C(=O)NCC(F)F)c1ccc(F)cc1 (stereo partly drawn)", "Criterion met"),
    ("C[C@@H]1CN(c2cc(=O)n(C)c3ccc(C#N)nc23)[C@@H](C)CN1C(CC(=O)NC(C)(C)C)c1ccc(F)cc1 (single isomer, unassigned) [Example 34]", "Criterion met"),
    ("C[C@@H]1CN(c2cc(=O)n(C)c3ccc(C#N)nc23)[C@@H](C)CN1C(CC(=O)NC(C)(C)C)c1ccc(F)cc1 (single isomer, unassigned) [Example 33]", "Criterion met"),
    ("C[C@@H]1CN(c2cc(=O)n(C)c3ccc(C#N)nc23)[C@@H](C)CN1C(C(=O)Nc1ccn(C)n1)c1ccc(F)cc1 (stereo partly drawn) [Example 16]", "Criterion met"),
    ("C[C@@H]1CN(c2cc(=O)n(C)c3ccc(C#N)nc23)[C@@H](C)CN1C(C(=O)N1CCOCC1)c1ccc(F)cc1 (stereo partly drawn) [Example 17]", "Criterion met"),
    ("C[C@@H]1CN(c2cc(=O)n(C)c3ccc(C#N)nc23)[C@@H](C)CN1C(C(=O)N1CCCCC1)c1ccc(F)cc1 (single isomer, unassigned) [Example 11]", "Criterion met"),
    ("C[C@@H]1CN(c2cc(=O)n(C)c3ccc(C#N)nc23)[C@@H](C)CN1C(C(=O)NCCOCCOCCNC(=O)c1ccc2c(c1)C(=O)OC21c2ccc(O)cc2Oc2cc(O)ccc21)c1ccc(F)cc1 (stereo partly drawn)", "Criterion not met"),
    ("CC(C)N(C)C(=O)CC(c1ccc(F)cc1)N1C[C@H](C)N(c2cc(=O)n(C)c3ccc(C#N)nc23)C[C@H]1C (stereo partly drawn) [Example 42]", "Criterion met"),
]

Where do the numbers come from? From patent US12454531B2.
